Target: Adenosine receptor A3 (Homo sapiens, UniProt P0DMS8)
Sequence (P0DMS8 whole entry): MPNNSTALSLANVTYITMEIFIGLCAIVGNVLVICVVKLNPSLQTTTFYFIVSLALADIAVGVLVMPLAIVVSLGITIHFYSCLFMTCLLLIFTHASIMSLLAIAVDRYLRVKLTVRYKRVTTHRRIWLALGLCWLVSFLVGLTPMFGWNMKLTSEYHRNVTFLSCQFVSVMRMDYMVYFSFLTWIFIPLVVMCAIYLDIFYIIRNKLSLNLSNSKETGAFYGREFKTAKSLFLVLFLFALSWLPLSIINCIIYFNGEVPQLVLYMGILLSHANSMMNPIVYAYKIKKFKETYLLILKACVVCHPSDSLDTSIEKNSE
Assay: Displacement of [125I]AB-MECA from human adenosine A3 receptor transfected in CHO cells
I'd be grateful if you could share measured pKi for these entries.
Numbers only, as −log10 of the molar value.

                              smiles_record  observation_type  measured_value
0  O=C(NCc1cccc(C(F)(F)F)c1)[C@H]1S[C@@H](n2cnc3c(NCc4cccc(I)c4)nc(Cl)nc32)[C@H](O)[C@@H]1O               pKi            6.45

// input: 6 compounds below; output: pKi for each
1. CNC(=O)[C@H]1S[C@@H](n2cnc3c(NC4CCCC4)nc(Cl)nc32)[C@H](O)[C@@H]1O
2. O=C(NCCc1ccccc1)[C@H]1S[C@@H](n2cnc3c(NCc4cccc(I)c4)nc(Cl)nc32)[C@H](O)[C@@H]1O
3. CNC(=O)[C@H]1S[C@@H](n2cnc3c(NC4CC4)nc(Cl)nc32)[C@H](O)[C@@H]1O
4. O=C(NCCC(c1ccccc1)c1ccccc1)[C@H]1S[C@@H](n2cnc3c(NCc4cccc(I)c4)nc(Cl)nc32)[C@H](O)[C@@H]1O
5. CNc1nc(Cl)nc2c1ncn2[C@@H]1S[C@H](C(=O)NCCc2cccc(F)c2)[C@@H](O)[C@H]1O
6. CNc1nc(Cl)nc2c1ncn2[C@@H]1S[C@H](C(=O)N2CCOCC2)[C@@H](O)[C@H]1O

1: 8.37; 2: 6.36; 3: 8.65; 4: 6.46; 5: 7.07; 6: 5.41
